PROTOCOL: probe aXIP binding to arrayed compounds – biochemical, NeuroSMM set, 635/667 nm fluorescence, primary screen (AID 1119);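 note: probe is the protein aXip251-270 applied at 1 µg/mL to compound-printed slides; binding of probe to printed compounds measured as 667 nm fluorescence plus signal to noise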
EXPERIMENTAL_CONDITIONS: small-molecule microarray, higher = more signal, called active from +8 up or from −8 down
REPORTED_ENDPOINT: composite Z-score
Number only, no unit.

INSERT INTO measurements (molecule, obs_value) VALUES
  ('CC(CO)N1C(=O)[C@@H]2[C@H]3C(=O)OCC=C[C@H]3OC23C=CCN(Cn2nnc4ccccc42)C(=O)[C@@H]13 (some centres undefined)', 0.6),
  ('COc1cc(C(O)C2C=CC3C(=O)N(C)C(=O)C3N2Nc2ccccc2)cc(OC)c1OC (centres undefined)', -0.014),
  ('C=CC[C@]1(C(=O)N2CCOCC2)COC(c2ccc(OCCCO)cc2)=N1', -0.275);

Lookup result for Oc1ccc2cc[n+](Cc3cc4c(cc3Br)OCO4)cc2c1 ; measured composite Z-score: -0.399

molecule [N-]=[N+]=Nc1ccccc1[C@@H]1OC(c2ccc(OCCCO)cc2)=N[C@]1(Cc1ccccc1)C(=O)N1CCCCC1 , composite Z-score observed: 0.254

Note to self: composite Z-score recorded for CC(C)C(CO)N1C(=O)[C@@H]2C3C(=O)OCCC/C=C\[C@H]3OC23C=CCN(c2ccc4ccccc4c2)C(=O)[C@@H]13 (some centres undefined) was 0.503

Record C=CCOC(=O)[C@@H]1[C@H]2C(=O)O[C@H](c3ccccc3)[C@H](c3ccccc3)N2[C@H](c2ccc(OCCOC(=O)[C@@H]3C[C@@H]4C(=O)N[C@@H](CCCC[N+](C)(C)C)C(=O)N4[C@@H]3c3ccc(O)cc3)cc2)[C@@]12C(=O)Nc1ccc(I)cc12 . Reported composite Z-score: -0.0092

Given item C=C(/C(=C/C[C@H](OC(=O)c1ccncc1)c1ccc(CO)o1)c1cnc2ccccc2c1)C(C)C , the value recorded as its composite Z-score is -0.55

The recorded composite Z-score for CCC#CCN(Cc1ccccc1Br)[C@H](/C=C/C1CC1)[C@@H](O)Cc1ccccc1 is -0.457

So, COc1ccc(CCNC(=O)[C@@]2(c3ccc([N+](=O)[O-])cc3)CC(=O)N(C3CCCCC3)[C@@H]2c2ccc(CO)cc2)cc1 ? Its composite Z-score was 0.665

Briefly, composite Z-score measured for COCCOC(=O)N1C(=O)[C@@]2(c3cc(C#CC4(O)CCCCCC4)ccc31)[C@H](C(=O)N1CCc3cc(OC)c(OC)cc3C1)[C@H]1C(=O)O[C@H](c3ccccc3)[C@H](c3ccccc3)N1[C@@H]2c1ccc(OCCO)cc1 : 0.28

Record C=CCNC(=O)[C@@H]1[C@H]2C(=O)O[C@H](c3ccccc3)[C@H](c3ccccc3)N2[C@H](c2ccc(OCCO)cc2)[C@@]12C(=O)N(C(=O)OCCOC)c1ccc(C#Cc3ccc(OC)cc3)cc12 . Reported composite Z-score: -0.116

Entry CCCCC(CC)C(O)C1C=CC2C(=O)N(c3ccccc3)C(=O)C2N1Nc1ccccc1F (centres undefined) , composite Z-score reported as -0.243

COc1ccc(CCNC(=O)[C@@]2(Sc3ccc(C)cc3)CC(=O)N(Cc3ccccc3C(F)(F)F)[C@@H]2c2ccc(CO)cc2I)cc1 yielded composite Z-score of -0.0511
